tested on: Aspergillus spec.; test: series dilution test, MIC; assay type: cell-based; conditions: Table B
Kindly apply the following: Met if MIC is less than 10 µg/mL, Not met in every other case.

// below: answered compounds
1. CC(C)(C)C(=O)C(Cn1ccnc1)Oc1ccc(Br)cc1 (centres unmarked) : Met
2. O=C(c1ccccc1)C(Oc1c(Cl)cccc1Cl)n1ccnc1 (centres unmarked) : Not met
3. CC(C)(C)C(=O)C(Cn1ccnc1)Oc1ccccc1-c1ccccc1 (centres unmarked) : Met
4. CC(C)(C)C(=O)C(Cn1ccnc1)Oc1ccc(F)cc1 (centres unmarked) : Met

## Input hey, is MIC for CC(C)(C)C(=O)C(Cn1ccnc1)Oc1ccc(Cl)cc1 (centres unmarked) lower than 10 µg/mL or not?
## Output Met

## Input Next: OC(O)(c1ccccc1)C(Oc1cccc(Cl)c1)n1ccnc1 (centres unmarked)
## Output Not met

## Input Next: O=C(c1ccccc1)C(Oc1cccc(Cl)c1)n1ccnc1 (centres unmarked)
## Output Not met

---

Assay: pharmacokinetics after oral administration
Format: in vivo
Conditions: serum, 50 mg/kg of body weight, mice and guinea pigs, read-out: serum peak concentrations
Procedure: c. Guideline data on the pharmacokinetics after oral administration. The preparations claimed are resorbed well on oral administration to mice and guinea pigs and after doses of 50 mg/kg of body weight give serum peak concentrations of 4-6 γ/ml for the case of the hydrochloride.
value-kind: Cmax

## Input // lookup Cmax for CC(C)(C)C(=O)C(Oc1ccc(-c2ccc(Cl)cc2)cc1)n1ccnc1.Cl (stereo not shown) [Example 1]
## Output 4000 to 6000 ng/mL

Every entry's value here was drawn from patent US4000299A.
